EXPERIMENT_DESCRIPTION: Pharmacokinetic parameters in rat plasma
Type: in vivo
STATED_CONDITIONS: compared with OTL78
READOUT_TYPE: clearance in rats in vivo, in words

Any idea what clearance in rats in vivo, in words was measured for CC1(C)C(=CC=C2CCCC(C=CC3=[N+](CCCCS(=O)(=O)[O-])c4ccc(S(=O)(=O)[O-])cc4C3(C)C)=C2Oc2ccc(CC(NC(=O)CCOCCCOCCCOCCOCCOCCNC(=O)CCC(NC(=O)NC(CCC(=O)[O-])C(=O)[O-])C(=O)[O-])C(=O)[O-])cc2)N(CCCCS(=O)(=O)[O-])c2ccc(S(=O)(=O)[O-])cc21.[Na+].[Na+].[Na+].[Na+].[Na+].[Na+].[Na+] (centres unmarked) [Example 41] ?
cleared more rapidly

Any idea what clearance in rats in vivo, in words was measured for CC1(C)C(=CC=C2CCCC(C=CC3=[N+](CCCCS(=O)(=O)[O-])c4ccc(S(=O)(=O)[O-])cc4C3(C)C)=C2Oc2ccc(CC(NC(=O)CCOCCOCCNC(=O)CCC(NC(=O)NC(CCC(=O)[O-])C(=O)[O-])C(=O)[O-])C(=O)[O-])cc2)N(CCCCS(=O)(=O)[O-])c2ccc(S(=O)(=O)[O-])cc21.[K+].[K+].[K+].[K+].[K+].[K+].[K+] (centres unmarked) [Example 12] ?
cleared more rapidly
